ASSAYED TARGET: TACC3 (Homo sapiens, UniProt Q9Y6A5)
pKd: −log10 of the molar value.
PARAMETER MEASURED: pKd

In [3]: df
Out[3]:
                            compound_string                        assayed_target  number
0  COc1ccc(-c2cc(Nc3ccnc(N4CCOCC4)n3)on2)cc1  TACC3 (Homo sapiens, UniProt Q9Y6A5)    8.82

Hey, just so you know, these numbers are from patent US20230027854A1.
